experimental_target: human muscarinic M3 receptor (Homo sapiens)
Construct: expressed in transfected cells; host or cells: BSR-M3H
Sequence (P20309 whole entry): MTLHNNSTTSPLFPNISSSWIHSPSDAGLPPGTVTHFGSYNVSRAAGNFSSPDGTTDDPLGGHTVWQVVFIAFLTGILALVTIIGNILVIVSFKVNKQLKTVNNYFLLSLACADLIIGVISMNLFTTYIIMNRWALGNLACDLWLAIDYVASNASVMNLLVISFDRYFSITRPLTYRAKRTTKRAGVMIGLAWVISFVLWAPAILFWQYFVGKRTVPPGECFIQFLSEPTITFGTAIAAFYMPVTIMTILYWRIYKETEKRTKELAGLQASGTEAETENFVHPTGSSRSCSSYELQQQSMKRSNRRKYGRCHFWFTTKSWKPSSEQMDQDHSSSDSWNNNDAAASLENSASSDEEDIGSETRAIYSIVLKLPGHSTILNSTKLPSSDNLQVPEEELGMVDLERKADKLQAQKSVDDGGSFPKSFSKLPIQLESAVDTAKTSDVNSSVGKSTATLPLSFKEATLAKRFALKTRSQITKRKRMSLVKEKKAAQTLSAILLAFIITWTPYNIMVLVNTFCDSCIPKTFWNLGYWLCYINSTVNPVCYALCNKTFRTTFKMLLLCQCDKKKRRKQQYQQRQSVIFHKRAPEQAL
protocol_text: Binding to human muscarinic M3 receptors ([3H]N-methylscopolamine)
cond: human; Example 101 table; read-out: IC50 (nM) M3
Property: IC50; scope: individual compounds

[[record]]
compound = "CN1CCN(c2nc(C3(c4csc5ccc(Cl)cc45)CCOCC3)cs2)CC1 [Compound 36]"
endpoint_name = "IC50"
observed = "> 1000 nM"

[[record]]
compound = "Clc1ccc(C2(c3csc(N4CCNCC4)n3)CCOCC2)cc1 [Compound 37]"
endpoint_name = "IC50"
observed = "< 500 nM"

[[record]]
compound = "CN1CCN(c2nc(C3(c4cccc(Cl)c4)CCOCC3)cs2)CC1 [Compound 63]"
endpoint_name = "IC50"
observed = "> 1000 nM"

[[record]]
compound = "CN1CCN(c2nc(C3(c4ccccc4F)CCCC3)cs2)CC1 [Compound 93]"
endpoint_name = "IC50"
observed = "< 100 nM"


Quick note, IC50 for CN1CCN(c2nc(C3(c4ccccc4F)CCCCC3)cs2)CC1 [Compound 83] landed at < 500 nM
